# System: Staphylococcus aureus
# Protocol text: Antibiofilm activity against Staphylococcus aureus ATCC 6538 incubated for 24 hrs by crystal violet-staining based assay
# Assay type: functional
Observed property: inhibition

Below are worked cases with known answers.
Asked: Look at this compound and give its reported inhibition. COc1ccc(OC)c(-c2cn3nc(-c4cn(C)c5ccc(Cl)cc45)sc3n2)c1
Given back: Dose-dependent effect

Asked: Look at this compound and give its reported inhibition. Cn1cc(-c2nn3cc(-c4ccc([N+](=O)[O-])cc4)nc3s2)c2cc(Cl)ccc21
Given back: Dose-dependent effect

Asked: Look at this compound and give its reported inhibition. FC(F)(F)c1ccc(-c2cn3nc(-c4c[nH]c5ccc(Br)cc45)sc3n2)cc1
Given back: Dose-dependent effect

Asked: Look at this compound and give its reported inhibition. O=[N+]([O-])c1ccc(-c2cn3nc(-c4c[nH]c5ccc(Br)cc45)sc3n2)cc1
Given back: Dose-dependent effect

Others:
Asked: Look at this compound and give its reported inhibition. Br.Cn1cc(-c2nn3cc(-c4ccc([N+](=O)[O-])cc4)nc3s2)c2cc(Br)ccc21
Given back: Dose-dependent effect

Asked: Look at this compound and give its reported inhibition. Br.COc1cccc(-c2cn3nc(-c4c[nH]c5ccccc45)sc3n2)c1
Given back: Dose-dependent effect

Asked: Look at this compound and give its reported inhibition. Cn1cc(-c2nn3cc(-c4ccc(F)cc4)nc3s2)c2cc(Cl)ccc21
Given back: Dose-dependent effect

Asked: Look at this compound and give its reported inhibition. Br.Cn1cc(-c2nn3cc(-c4ccc(F)cc4)nc3s2)c2ccccc21
Given back: Dose-dependent effect

Asked: Look at this compound and give its reported inhibition. Br.c1ccc(-c2cn3nc(-c4c[nH]c5ccccc45)sc3n2)cc1
Given back: Dose-dependent effect

Asked: Look at this compound and give its reported inhibition. Br.COc1cccc(-c2cn3nc(-c4c[nH]c5ccc(Cl)cc45)sc3n2)c1
Given back: Dose-dependent effect

Asked: Look at this compound and give its reported inhibition. Br.COc1ccc(OC)c(-c2cn3nc(-c4c[nH]c5ccccc45)sc3n2)c1
Given back: Dose-dependent effect

Asked: Look at this compound and give its reported inhibition. Br.COc1ccc(OC)c(-c2cn3nc(-c4cn(C)c5ccc(Br)cc45)sc3n2)c1
Given back: Dose-dependent effect

Asked: Look at this compound and give its reported inhibition. Br.Cn1cc(-c2nn3cc(-c4ccccc4)nc3s2)c2ccccc21
Given back: Dose-dependent effect

Asked: Look at this compound and give its reported inhibition. Br.COc1cccc(-c2cn3nc(-c4cn(C)c5ccccc45)sc3n2)c1
Given back: Dose-dependent effect

Asked: Look at this compound and give its reported inhibition. FC(F)(F)c1ccc(-c2cn3nc(-c4c[nH]c5ccc(Cl)cc45)sc3n2)cc1
Given back: Dose-dependent effect

Asked: Look at this compound and give its reported inhibition. Cn1cc(-c2nn3cc(-c4ccc([N+](=O)[O-])cc4)nc3s2)c2ccccc21
Given back: Dose-dependent effect

Asked: Look at this compound and give its reported inhibition. Br.COc1ccc(OC)c(-c2cn3nc(-c4c[nH]c5ccc(Cl)cc45)sc3n2)c1
Given back: Dose-dependent effect

Asked: Look at this compound and give its reported inhibition. Br.O=[N+]([O-])c1ccc(-c2cn3nc(-c4c[nH]c5ccc(Cl)cc45)sc3n2)cc1
Given back: Dose-dependent effect

Asked: Look at this compound and give its reported inhibition. O=[N+]([O-])c1ccc(-c2cn3nc(-c4c[nH]c5ccccc45)sc3n2)cc1
Given back: Dose-dependent effect

Asked: Look at this compound and give its reported inhibition. Br.Fc1ccc(-c2cn3nc(-c4c[nH]c5ccc(Cl)cc45)sc3n2)cc1
Given back: Dose-dependent effect

Asked: Look at this compound and give its reported inhibition. Br.COc1cccc(-c2cn3nc(-c4cn(C)c5ccc(Br)cc45)sc3n2)c1
Given back: Dose-dependent effect
